A collection of binders and their measured glycan array binding signal (z-score)
EXPERIMENTAL TARGET: Neu5Ac(a2-8)Neu5Ac(a2-3)[Gal(b1-3)GalNAc(b1-4)]Gal(b1-4)Glc
TEST SUMMARY: glycan array binding signal (z-score within array); higher = stronger binding
CONDITION DESCRIPTION: glycan notation: IUPAC condensed, linker removed
Many of the other results were omitted from the sample, so the strongest signals are more common in it than they were.
PROPERTY NAME: glycan array binding signal (z-score)

BINDER	PROPERTY NAME	MEASURED RESULT
Threefoil (Haloarcula marismortui) (protein) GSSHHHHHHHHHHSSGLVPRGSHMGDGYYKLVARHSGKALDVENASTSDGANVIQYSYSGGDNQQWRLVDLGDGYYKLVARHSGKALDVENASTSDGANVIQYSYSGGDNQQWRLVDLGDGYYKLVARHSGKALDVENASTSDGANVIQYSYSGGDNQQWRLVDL	glycan array binding signal (z-score)	-0.146
Gal 9 (Canis lupus) (protein) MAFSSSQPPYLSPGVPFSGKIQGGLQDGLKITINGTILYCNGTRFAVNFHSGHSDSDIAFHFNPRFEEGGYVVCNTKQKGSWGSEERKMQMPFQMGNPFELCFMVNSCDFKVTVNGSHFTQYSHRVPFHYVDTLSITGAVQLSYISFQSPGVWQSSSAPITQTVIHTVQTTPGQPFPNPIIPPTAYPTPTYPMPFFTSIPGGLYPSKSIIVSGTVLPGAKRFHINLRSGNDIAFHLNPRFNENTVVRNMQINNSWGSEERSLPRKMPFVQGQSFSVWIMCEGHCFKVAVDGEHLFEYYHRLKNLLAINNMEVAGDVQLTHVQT	glycan array binding signal (z-score)	-0.302
OGAN (protein) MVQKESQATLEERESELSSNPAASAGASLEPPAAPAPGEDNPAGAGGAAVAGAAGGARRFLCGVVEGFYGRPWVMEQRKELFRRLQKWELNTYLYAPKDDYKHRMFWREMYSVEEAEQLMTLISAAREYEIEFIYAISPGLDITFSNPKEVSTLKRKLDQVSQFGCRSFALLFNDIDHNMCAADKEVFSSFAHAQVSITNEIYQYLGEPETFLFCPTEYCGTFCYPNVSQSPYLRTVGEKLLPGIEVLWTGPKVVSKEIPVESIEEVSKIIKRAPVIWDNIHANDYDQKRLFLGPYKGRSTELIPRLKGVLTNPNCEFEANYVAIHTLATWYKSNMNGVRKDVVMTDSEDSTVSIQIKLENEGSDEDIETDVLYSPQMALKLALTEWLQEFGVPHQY	glycan array binding signal (z-score)	-0.052
